Provide the recorded % inhibition for the entries that follow.
Tested on: human PKK mRNA
Experiment: Antisense inhibition of human PKK mRNA in HepaRG cells, 1,000 nM, MOE/deoxy/cEt oligonucleotides (Example 3)
Type: cell-based
Conditions: Table 19; HepaRG cells, electroporation with 1,000 nM antisense oligonucleotide, approximately 24 hours; PKK mRNA by RT-PCR (RTS3454), relative to untreated control cells
Strand notation (5' to 3'): a small letter for the sugar, then the base; units joined by * are phosphorothioate-linked, units joined directly phosphodiester-linked; [ ] holds rarer units or linkages, { } end groups; capitals alone tell only the bases. e = 2'-O-(2-methoxyethyl) (MOE); k = constrained ethyl (cEt); [5mC] = 5-methylcytosine; d = 2'-deoxy (DNA)
Could you write the number and then its unit?

# annotated cases, reported % inhibition shown
| substance | system | % inhibition |
| --- | --- | --- |
| 548136 (eG*eG*k[5mC]*dT*d[5mC]*dA*dG*dA*dA*dT*dT*dT*dG*kA*k[5mC]*eT; antisense) [compound 548136] | human PKK mRNA | 39% |
| 548149 (eG*eA*k[5mC]*dA*dT*dT*dG*dT*d[5mC]*d[5mC]*dT*d[5mC]*dA*kG*k[5mC]*eA; antisense) [compound 548149] | human PKK mRNA | 39% |
| 548127 (eT*eT*kG*d[5mC]*d[5mC]*dT*dA*dG*dA*d[5mC]*dT*d[5mC]*dT*kG*kG*eA; antisense) [compound 548127] | human PKK mRNA | 60% |
| 548118 (antisense eT*e[5mC]*kT*d[5mC]*dA*dT*dG*d[5mC]*dT*dG*dG*dT*dG*kA*k[5mC]*eT) [compound 548118] | human PKK mRNA | 47% |
| 548145 (eA*eT*kG*d[5mC]*dA*dA*dA*dG*dA*dA*dG*dA*dT*kG*k[5mC]*e[5mC]; antisense) [compound 548145] | human PKK mRNA | 63% |

Please give % inhibition for each item listed below.
1. 548132 (eG*eA*kA*dT*dT*dT*dG*dA*d[5mC]*dT*dT*dG*dA*kA*k[5mC]*eT; antisense) [compound 548132]
2. 548140 (e[5mC]*eA*kG*dA*dT*dG*dA*dG*dG*dA*d[5mC]*d[5mC]*d[5mC]*k[5mC]*k[5mC]*e[5mC]; antisense) [compound 548140]
3. 548113 (antisense eG*eG*kT*dG*dA*d[5mC]*dT*dG*d[5mC]*dA*dT*d[5mC]*dT*kG*kA*eG) [compound 548113]
4. 548091 (antisense eT*eG*k[5mC]*dA*dA*dA*d[5mC]*dT*dA*dA*dG*dG*dG*kA*k[5mC]*e[5mC]) [compound 548091]
5. 548083 (eA*eG*kG*dG*dA*d[5mC]*d[5mC]*dA*d[5mC]*d[5mC]*dT*dG*dA*kA*kT*e[5mC]; antisense) [compound 548083]

0%
74%
56%
62%
0%

Give me % inhibition for each of these substances, listed below.
1. 548109 (antisense eG*e[5mC]*kA*dT*d[5mC]*dT*dG*dA*dG*d[5mC]*dT*dT*dT*kT*k[5mC]*e[5mC]) [compound 548109]
2. 548135 (eT*e[5mC]*kA*dG*dA*dA*dT*dT*dT*dG*dA*d[5mC]*dT*kT*kG*eA; antisense) [compound 548135]
3. 548119 (antisense eT*eG*kG*dA*d[5mC]*dT*dG*d[5mC]*dT*dT*d[5mC]*dT*d[5mC]*kA*kT*eG) [compound 548119]

1. 77%
2. 46%
3. 25%
